Source: ChEMBL document CHEMBL1129424

System: Rattus norvegicus
TEST: Percent change in total cholesterol in the acute cholesterol-fed rat model (APCC) of hypercholesterolemia at 3 mg/Kg
Format: functional
Note that class boundaries on DeltaTC are group A: < -60%; group B: ≥ -60% and < -40%; group C: ≥ -40%

Reference set (4 entries):
{"COMPOUND": "CCCCCCCCCCCCc1nnc(C(C(=O)Nc2c(C(C)C)cccc2C(C)C)c2ccccc2)o1 (stereo unspecified)", "LABEL": "group C"}
{"COMPOUND": "CCCCCCCCCCCCc1noc(C(C(=O)Nc2c(OC)cc(OC)cc2OC)c2ccccc2)n1 (stereo unspecified)", "LABEL": "group B"}
{"COMPOUND": "CCCCCCCCCCCCc1cc(CC(=O)Nc2c(OC)cc(OC)cc2OC)on1", "LABEL": "group B"}
{"COMPOUND": "CCCCCCCCCCCCc1cc(C(C(=O)Nc2c(OC)cc(OC)cc2OC)c2ccccc2)on1 (stereo unspecified)", "LABEL": "group A"}

Query: Form: Item = CCCCCCCCCCCCc1nc(C(C(=O)Nc2c(OC)cc(OC)cc2OC)c2ccccc2)no1 (stereo unspecified) ; Class = ?
Reply: group B

Query: Form: Item = CCCCCCCCCCCCc1cc(C(C(=O)Nc2c(OC)cc(OC)cc2OC)c2ccccc2)no1 (stereo unspecified) ; Class = ?
Reply: group B

Query: Form: Item = CCCCCCCCCCCCc1cn(C(C(=O)Nc2c(OC)cc(OC)cc2OC)c2ccccc2)cn1 (stereo unspecified) ; Class = ?
Reply: group B

Query: Form: Item = CCCCCCCCCCCCc1cn(C(C(=O)Nc2c(OC)cc(OC)cc2OC)c2ccccc2)nn1 (stereo unspecified) ; Class = ?
Reply: group A

Query: Form: Item = CCCCCCCCCCCCc1nnc(C(C(=O)Nc2c(OC)cc(OC)cc2OC)c2ccccc2)o1 (stereo unspecified) ; Class = ?
Reply: group A

Query: Form: Item = CCCCCCCCCCCCc1cc(C(C(=O)Nc2c(C(C)C)cccc2C(C)C)c2ccccc2)on1 (stereo unspecified) ; Class = ?
Reply: group C
